The reported measurements were obtained from paper PMC8284461.

System: M. abscessus subsp. massiliense CCUG 48898T
Assay: MIC, broth microdilution
Type: cell-based, Mycobacterium abscessus
Conditions: Mycobacteroides abscessus, 72 h, 90% growth inhibition, 3 days
parameter: MIC (µM)
Please state the figure in µM; there is no need to write the unit.

{"structure_smiles_string": "CCNC(=O)Nc1nc2cc(-c3cnc(C(C)(C)O)nc3)c(F)c([C@H]3CCCO3)c2[nH]1", "MIC, µM": 3}
{"structure_smiles_string": "CC[C@H]1OC(=O)[C@H](C)[C@@H](O[C@H]2C[C@@](C)(OC)[C@@H](O)[C@H](C)O2)[C@H](C)[C@@H](O[C@@H]2O[C@H](C)C[C@H](N(C)C)[C@H]2O)[C@](C)(OC)C[C@@H](C)C(=O)[C@H](C)[C@@H](O)[C@]1(C)O", "MIC, µM": 0.2}
{"structure_smiles_string": "COc1ccc2nccc(NC(=O)C3CCN(CCc4ccc(C(F)(F)F)cc4)CC3)c2n1", "MIC, µM": 2}
{"structure_smiles_string": "COc1ccc2nccc(NC(=O)C3CCN(CCc4ccc(Cl)cc4)CC3)c2n1", "MIC, µM": 14}

Alright, here's another compound for you.
Q: What does the record list as MIC for COc1c(N2C[C@@H]3CCCN[C@@H]3C2)c(F)cc2c(=O)c(C(=O)O)cn(C3CC3)c12 ?
Ans: 6.3

###

System: M. abscessus subsp. abscessus ATCC 19977 MXF^r-2 (GyrA D96N)
Experiment: MIC, resistant mutant
Assay type: cell-based, Mycobacterium abscessus
Conditions: Mycobacteroides abscessus, ATCC19977
parameter: log10 of MIC (log10 of the value in µM)
Would you kindly interpret these values as log10 of MIC expressed in µM?

// worked examples, log10 of MIC included
{"compound": "COc1c(N2C[C@@H]3CCCN[C@@H]3C2)c(F)cc2c(=O)c(C(=O)O)cn(C3CC3)c12 [MXF, moxifloxacin]", "log10 of MIC": 1.90}
{"compound": "CCNC(=O)Nc1nc2cc(-c3cnc(C(C)(C)O)nc3)c(F)c([C@H]3CCCO3)c2[nH]1 [SPR719]", "log10 of MIC": -0.70}
{"compound": "COc1ccc2nccc(NC(=O)C3CCN(CCc4ccc(C(F)(F)F)cc4)CC3)c2n1 [844-TFM]", "log10 of MIC": 0.30}

Q: What is its log10 of MIC for M. abscessus subsp. abscessus ATCC 19977 MXF^r-2 (GyrA D96N)? Entry: COc1ccc2nccc(NC(=O)C3CCN(CCc4ccc(Cl)cc4)CC3)c2n1 [compound 844]
Ans: 1.18

Q: Notebook: pull reported log10 of MIC for M. abscessus subsp. abscessus ATCC 19977 MXF^r-2 (GyrA D96N), entry CC[C@H]1OC(=O)[C@H](C)[C@@H](O[C@H]2C[C@@](C)(OC)[C@@H](O)[C@H](C)O2)[C@H](C)[C@@H](O[C@@H]2O[C@H](C)C[C@H](N(C)C)[C@H]2O)[C@](C)(OC)C[C@@H](C)C(=O)[C@H](C)[C@@H](O)[C@]1(C)O [CLR, clarithromycin]
Ans: 0.00

###

Tested on: M. abscessus subsp. abscessus M337
Listed here are compounds together with their documented MIC.
Numbers only; they are read as µM.

Please review the entries below; each comes with its answer.
{"compound": "COc1c(N2C[C@@H]3CCCN[C@@H]3C2)c(F)cc2c(=O)c(C(=O)O)cn(C3CC3)c12 [MXF, moxifloxacin]", "numeric_value": 1.5}
{"compound": "COc1ccc2nccc(NC(=O)C3CCN(CCc4ccc(C(F)(F)F)cc4)CC3)c2n1 [844-TFM]", "numeric_value": 3.1}
{"compound": "CCNC(=O)Nc1nc2cc(-c3cnc(C(C)(C)O)nc3)c(F)c([C@H]3CCCO3)c2[nH]1 [SPR719]", "numeric_value": 0.8}
{"compound": "CC[C@H]1OC(=O)[C@H](C)[C@@H](O[C@H]2C[C@@](C)(OC)[C@@H](O)[C@H](C)O2)[C@H](C)[C@@H](O[C@@H]2O[C@H](C)C[C@H](N(C)C)[C@H]2O)[C@](C)(OC)C[C@@H](C)C(=O)[C@H](C)[C@@H](O)[C@]1(C)O [CLR, clarithromycin]", "numeric_value": 3.2}

Q: Return MIC measured with M. abscessus subsp. abscessus M337 given this compound: COc1ccc2nccc(NC(=O)C3CCN(CCc4ccc(Cl)cc4)CC3)c2n1 [compound 844]
Ans: 6.3

###

Assay: In vivo mouse pharmacokinetics
Details: female, mouse, plasma, po; CD-1 mice, p.o. 25 mg/kg; average (SD); read-out: AUC p.o.
parameter: AUC

Q: Entry COc1ccc2nccc(NC(=O)C3CCN(CCc4ccc(C(F)(F)F)cc4)CC3)c2n1 : reported AUC = ?
Ans: 58 ng·h/mL

###

Test: In vivo mouse pharmacokinetics
Conditions: female, mouse, plasma, iv; CD-1 mice, i.v. 5 mg/kg; average (SD); read-out: AUC i.v.
parameter: AUC
Entry format: amount then unit.

Q: What value of AUC has been reported for the following compound? COc1ccc2nccc(NC(=O)C3CCN(CCc4ccc(C(F)(F)F)cc4)CC3)c2n1
Ans: 5630 ng·h/mL

###

System: M. abscessus subsp. abscessus Bamboo 844^r-3 (GyrB S473W)
Experiment: MIC, resistant mutant
Type: cell-based, Mycobacterium abscessus
Settings: Mycobacteroides abscessus
Flag rule - MIC less than 0.4 µM flags Y; the remaining entries get N.

Q: Would you kindly verify if MIC of COc1ccc2nccc(NC(=O)C3CCN(CCc4ccc(Cl)cc4)CC3)c2n1 [compound 844] is strictly less than 0.4 µM?
Ans: N

Q: Hello, I'm reviewing records and need to know if MIC of COc1ccc2nccc(NC(=O)C3CCN(CCc4ccc(C(F)(F)F)cc4)CC3)c2n1 [844-TFM] is below 0.4 µM. Could you check?
Ans: N

Q: Does the reported MIC of CCNC(=O)Nc1nc2cc(-c3cnc(C(C)(C)O)nc3)c(F)c([C@H]3CCCO3)c2[nH]1 [SPR719] stay below 0.4 µM?
Ans: Y

Q: Threshold test, MIC < 0.4 µM: COc1c(N2C[C@@H]3CCCN[C@@H]3C2)c(F)cc2c(=O)c(C(=O)O)cn(C3CC3)c12 [MXF, moxifloxacin]
Ans: N

###

Experiment: In vivo mouse pharmacokinetics
Settings: female, mouse, plasma, sc; CD-1 mice, s.c. 25 mg/kg vs i.v. 5 mg/kg; read-out: s.c. bioavailability
parameter: bioavailability (%)
Enter your answer as a number in %; do not include the unit.

Q: Would you mind telling me what bioavailability value was observed for COc1ccc2nccc(NC(=O)C3CCN(CCc4ccc(C(F)(F)F)cc4)CC3)c2n1 [844-TFM] ?
Ans: 3

###

Experiment: In vivo mouse pharmacokinetics
Conditions: female, mouse, plasma, iv; CD-1 mice, i.v. 5 mg/kg; average (SD)
parameter: clearance
Could you kindly put the unit after your number?

Q: Looking for the measured clearance of COc1ccc2nccc(NC(=O)C3CCN(CCc4ccc(C(F)(F)F)cc4)CC3)c2n1 , can you help?
Ans: 10.6 mL/min/kg

###

# MIC values compiled below
Test system: M. abscessus subsp. abscessus ATCC 19977 MXF^r-1 (GyrA D96Y)
Assay: MIC, resistant mutant
Type: cell-based, Mycobacterium abscessus
Settings: Mycobacteroides abscessus, ATCC19977
In your response, the unit should come after the numeric value.

A selection of reference data follows.
{"structure_smiles_string": "CCNC(=O)Nc1nc2cc(-c3cnc(C(C)(C)O)nc3)c(F)c([C@H]3CCCO3)c2[nH]1", "MIC": "0.8 µM"}
{"structure_smiles_string": "CC[C@H]1OC(=O)[C@H](C)[C@@H](O[C@H]2C[C@@](C)(OC)[C@@H](O)[C@H](C)O2)[C@H](C)[C@@H](O[C@@H]2O[C@H](C)C[C@H](N(C)C)[C@H]2O)[C@](C)(OC)C[C@@H](C)C(=O)[C@H](C)[C@@H](O)[C@]1(C)O", "MIC": "2 µM"}
{"structure_smiles_string": "COc1ccc2nccc(NC(=O)C3CCN(CCc4ccc(Cl)cc4)CC3)c2n1", "MIC": "40 µM"}
{"structure_smiles_string": "COc1c(N2C[C@@H]3CCCN[C@@H]3C2)c(F)cc2c(=O)c(C(=O)O)cn(C3CC3)c12", "MIC": "100 µM"}

Now look at this one.
Q: Item COc1ccc2nccc(NC(=O)C3CCN(CCc4ccc(C(F)(F)F)cc4)CC3)c2n1 has what recorded MIC?
Ans: 6 µM

###

This document collects MIC values reported for M. abscessus subsp. bolletii M232.
Report only the number, with the unit µM understood.

{"structure_smiles_string": "COc1ccc2nccc(NC(=O)C3CCN(CCc4ccc(Cl)cc4)CC3)c2n1", "display_unit": "µM", "MIC": 6.3}
{"structure_smiles_string": "COc1ccc2nccc(NC(=O)C3CCN(CCc4ccc(C(F)(F)F)cc4)CC3)c2n1", "display_unit": "µM", "MIC": 1.6}
{"structure_smiles_string": "CCNC(=O)Nc1nc2cc(-c3cnc(C(C)(C)O)nc3)c(F)c([C@H]3CCCO3)c2[nH]1", "display_unit": "µM", "MIC": 1.5}
{"structure_smiles_string": "COc1c(N2C[C@@H]3CCCN[C@@H]3C2)c(F)cc2c(=O)c(C(=O)O)cn(C3CC3)c12", "display_unit": "µM", "MIC": 1.5}

# context switch: different compound, same MIC
Q: MIC of CC[C@H]1OC(=O)[C@H](C)[C@@H](O[C@H]2C[C@@](C)(OC)[C@@H](O)[C@H](C)O2)[C@H](C)[C@@H](O[C@@H]2O[C@H](C)C[C@H](N(C)C)[C@H]2O)[C@](C)(OC)C[C@@H](C)C(=O)[C@H](C)[C@@H](O)[C@]1(C)O on M. abscessus subsp. bolletii M232?
Ans: 3.2
